- assay.name: Solvent solubility (butyl acetate, toluene or PGMEA)
- Type: physicochemical
- condition.details: toluene, 25° C.
In this section we review reported Solvent solubility Toluene values for a set of molecules.
assay.endpoint: Solvent solubility Toluene (wt %)

[[record]]
molecule = "O=C1c2cccc3cccc(c23)C(=O)N1OS(=O)(=O)C(F)(F)F [A′-1, reference compound]"
assay_endpoint = "Solvent solubility Toluene"
value_unit = "wt %"
qualifying_sign = "="
numeric_result = 4

[[record]]
molecule = "COc1cc2c3c(cccc3c1)C(=O)N(OS(=O)(=O)C(F)(F)F)C2=O"
assay_endpoint = "Solvent solubility Toluene"
value_unit = "wt %"
qualifying_sign = "="
numeric_result = 7.5

[[record]]
molecule = "CC(C)(C)Cc1cc2c3c(cc(CC(C)(C)C)cc3c1)C(=O)N(OS(=O)(=O)C(F)(F)F)C2=O"
assay_endpoint = "Solvent solubility Toluene"
value_unit = "wt %"
qualifying_sign = "="
numeric_result = 10

[[record]]
molecule = "CCCCC(CC)C(=O)Oc1cc2c3c(cccc3c1)C(=O)N(OS(=O)(=O)CC13CCC(CC1=O)C3(C)C)C2=O (centres unmarked)"
assay_endpoint = "Solvent solubility Toluene"
value_unit = "wt %"
qualifying_sign = "="
numeric_result = 9

[[record]]
molecule = "CC1(C)C2CCC1(CS(=O)(=O)ON1C(=O)c3cccc4c(C(F)(F)C(F)(F)C(F)(F)C(F)(F)C(F)(F)C(F)(F)C(F)(F)C(F)(F)F)ccc(c34)C1=O)C(=O)C2 (centres unmarked)"
assay_endpoint = "Solvent solubility Toluene"
value_unit = "wt %"
qualifying_sign = "="
numeric_result = 10

[[record]]
molecule = "CCCC(=O)Oc1cc2c3c(cccc3c1)C(=O)N(OS(=O)(=O)CC13CCC(CC1=O)C3(C)C)C2=O (centres unmarked)"
assay_endpoint = "Solvent solubility Toluene"
value_unit = "wt %"
qualifying_sign = "="
numeric_result = 7

[[record]]
molecule = "O=C1c2cccc3c(OCC(F)(F)C(F)F)ccc(c23)C(=O)N1OS(=O)(=O)C(F)(F)F"
assay_endpoint = "Solvent solubility Toluene"
value_unit = "wt %"
qualifying_sign = "="
numeric_result = 12

[[record]]
molecule = "O=C1c2cccc3c(Oc4c(F)c(F)c(F)c(F)c4F)ccc(c23)C(=O)N1OS(=O)(=O)C(F)(F)F"
assay_endpoint = "Solvent solubility Toluene"
value_unit = "wt %"
qualifying_sign = "="
numeric_result = 16

[[record]]
molecule = "c1ccc(Sc2ccc([S+](c3ccccc3)c3ccccc3)cc2)cc1 [A′-2, reference compound]"
assay_endpoint = "Solvent solubility Toluene"
value_unit = "wt %"
qualifying_sign = "<"
numeric_result = 0.5

[[record]]
molecule = "O=C1c2cccc3c(Sc4ccccc4)ccc(c23)C(=O)N1OS(=O)(=O)c1c(F)c(F)c(F)c(F)c1F"
assay_endpoint = "Solvent solubility Toluene"
value_unit = "wt %"
qualifying_sign = "="
numeric_result = 5.5

[[record]]
molecule = "CC(C)Oc1ccc2c3c(cccc13)C(=O)N(OS(=O)(=O)CC13CCC(CC1=O)C3(C)C)C2=O (centres unmarked)"
assay_endpoint = "Solvent solubility Toluene"
value_unit = "wt %"
qualifying_sign = "="
numeric_result = 2

[[record]]
molecule = "O=C1c2cc(C34CC5CC(CC(C5)C3)C4)cc3cc(C45CC6CC(CC(C6)C4)C5)cc(c23)C(=O)N1OS(=O)(=O)C(F)(F)F"
assay_endpoint = "Solvent solubility Toluene"
value_unit = "wt %"
qualifying_sign = "="
numeric_result = 8.5

[[record]]
molecule = "CC(C)(C)Cc1cc2c3c(cc(CC(C)(C)C)cc3c1)C(=O)N(OS(=O)(=O)c1c(F)c(F)c(F)c(F)c1F)C2=O"
assay_endpoint = "Solvent solubility Toluene"
value_unit = "wt %"
qualifying_sign = "="
numeric_result = 8

[[record]]
molecule = "CCCCC(CC)C(=O)Oc1cc2c3c(cccc3c1)C(=O)N(OS(=O)(=O)c1c(F)c(F)c(F)c(F)c1F)C2=O (centres unmarked)"
assay_endpoint = "Solvent solubility Toluene"
value_unit = "wt %"
qualifying_sign = "="
numeric_result = 23

